Below are molecules with their IC50 as measured on cathepsin D (from human liver) (Homo sapiens, UniProt P07339).
Sequence (P07339 65-412): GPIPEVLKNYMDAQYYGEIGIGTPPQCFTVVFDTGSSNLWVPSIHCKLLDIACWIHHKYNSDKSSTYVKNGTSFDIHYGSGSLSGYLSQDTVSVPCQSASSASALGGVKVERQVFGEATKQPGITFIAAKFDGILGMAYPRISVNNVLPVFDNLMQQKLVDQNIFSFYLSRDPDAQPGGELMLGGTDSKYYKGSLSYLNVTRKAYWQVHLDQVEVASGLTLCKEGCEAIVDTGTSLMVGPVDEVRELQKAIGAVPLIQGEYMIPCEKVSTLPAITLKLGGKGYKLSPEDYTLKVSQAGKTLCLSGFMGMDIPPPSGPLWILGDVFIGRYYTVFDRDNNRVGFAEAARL

{"smiles-structure": "CC1(C)OC(N)=N[C@](C)(c2cc(NC(=O)c3ncc(C(F)(F)F)cc3Cl)ccc2F)C1(F)F", "IC50": "> 200 µM"}
{"smiles-structure": "C[C@]1(c2cc(NC(=O)c3ccc(C#N)cn3)ccc2F)N=C(N)OCC1(F)F", "IC50": "69 µM"}
{"smiles-structure": "C[C@]1(c2cc(NC(=O)c3ncc(C#N)cc3Cl)ccc2F)N=C(N)OCC1(F)F", "IC50": "> 200 µM"}

The record that follows has no IC50 shown yet.
State the recorded IC50 for this entry: CC1(C)OC(N)=N[C@](C)(c2cc(NC(=O)c3ccc(C#N)cn3)ccc2F)C1(F)F
> 200 µM

* * *

pIC50: −log10 of the molar value.
Below are compounds with their pIC50 as measured on CYP3A4 (Homo sapiens).
Sequence (P08684 whole entry): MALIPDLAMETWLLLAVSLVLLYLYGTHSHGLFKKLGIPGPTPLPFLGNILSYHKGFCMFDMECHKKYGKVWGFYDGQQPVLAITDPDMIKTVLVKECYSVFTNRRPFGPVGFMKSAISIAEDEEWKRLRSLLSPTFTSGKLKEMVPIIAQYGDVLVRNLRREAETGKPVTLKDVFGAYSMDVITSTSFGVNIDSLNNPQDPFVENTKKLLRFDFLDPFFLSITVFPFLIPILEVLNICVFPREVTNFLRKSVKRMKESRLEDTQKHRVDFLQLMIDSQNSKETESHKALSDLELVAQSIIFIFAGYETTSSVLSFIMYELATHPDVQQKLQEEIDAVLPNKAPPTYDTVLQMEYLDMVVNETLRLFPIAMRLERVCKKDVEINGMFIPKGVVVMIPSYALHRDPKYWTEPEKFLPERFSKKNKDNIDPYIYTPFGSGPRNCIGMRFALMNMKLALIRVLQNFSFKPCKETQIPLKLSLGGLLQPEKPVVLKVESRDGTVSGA

Known results for compounds:
{"smiles-structure": "CC1(C)OC(N)=N[C@](C)(c2cc(NC(=O)c3ncc(C(F)(F)F)cc3Cl)ccc2F)C1(F)F", "pIC50": "< 5.00"}
{"smiles-structure": "CC1(C)OC(N)=N[C@](C)(c2cc(NC(=O)c3ncc(C#N)cc3Cl)ccc2F)C1(F)F", "pIC50": "5.00 to 6.00"}
{"smiles-structure": "CC1(C)OC(N)=N[C@](C)(c2cc(NC(=O)c3ccc(C#N)cn3)ccc2F)C1(F)F", "pIC50": "< 5.00"}
{"smiles-structure": "C[C@]1(c2cc(NC(=O)c3ncc(C(F)(F)F)cc3Cl)ccc2F)N=C(N)OCC1(F)F", "pIC50": "< 5.00"}

State the recorded pIC50 for this entry: C[C@]1(c2cc(NC(=O)c3ncc(C#N)cc3Cl)ccc2F)N=C(N)OCC1(F)F
5.00 to 6.00

* * *

# system-name: BACE2 (Rattus norvegicus)
# Construct: endogenous cellular BACE2 in the Ins1e rat cell line; endogenous in cells
# Sequence (Q6IE75 63-514): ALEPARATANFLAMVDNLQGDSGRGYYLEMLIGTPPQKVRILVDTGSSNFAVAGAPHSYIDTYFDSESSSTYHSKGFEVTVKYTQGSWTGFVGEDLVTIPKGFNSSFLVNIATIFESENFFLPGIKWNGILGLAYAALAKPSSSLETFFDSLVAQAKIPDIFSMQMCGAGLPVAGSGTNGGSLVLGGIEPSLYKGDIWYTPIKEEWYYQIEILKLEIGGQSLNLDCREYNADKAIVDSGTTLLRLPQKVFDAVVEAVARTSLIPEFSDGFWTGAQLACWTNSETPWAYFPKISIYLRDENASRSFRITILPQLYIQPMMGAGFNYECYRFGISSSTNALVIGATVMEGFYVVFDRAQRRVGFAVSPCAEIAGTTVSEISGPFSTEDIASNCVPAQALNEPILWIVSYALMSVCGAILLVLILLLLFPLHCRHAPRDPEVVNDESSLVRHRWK
# protocol-summary: Assay for BACE inhibition by measuring cellular TMEM27 cleavage
# measurement-setup: INS-TMEM27 cells (INS1e-derived); shed TMEM27 by ELISA; read-out: BACE2 cell act. IC50
experimental-readout: IC50 (nM)

Known results for compounds:
{"compound": "C[C@]1(c2cc(NC(=O)c3ncc(F)cc3Cl)ccc2F)N=C(N)OCC1(F)F [Example 7]", "IC50 (nM)": 49}
{"compound": "C[C@]1(c2cc(NC(=O)c3cnc(Cl)cn3)ccc2F)N=C(N)OCC1(F)F [Example 47]", "IC50 (nM)": 34900}

I. Cc1cn[nH]c1C(=O)Nc1ccc(F)c([C@@]2(C)N=C(N)OCC2(F)F)c1 [Example 66]
II. C[C@]1(c2cc(NC(=O)c3ncc(Cl)cn3)ccc2F)N=C(N)OCC1(F)F [Example 12]
Higher IC50: I or II ? Output the label that corresponds to your choice.
I
(I: 465 nM, II: 69 nM)

* * *

# system-name: BACE2 (Rattus norvegicus)
# Construct: endogenous cellular BACE2 in the Ins1e rat cell line; endogenous in cells
# protocol-summary: Assay for BACE inhibition by measuring cellular TMEM27 cleavage
# measurement-setup: INS-TMEM27 cells (INS1e-derived); shed TMEM27 by ELISA; read-out: BACE2 cell act. IC50
pIC50: −log10 of the molar value.
experimental-readout: pIC50

Known results for compounds:
{"compound": "C[C@]1(c2cc(NC(=O)c3ccc(C#N)cn3)ccc2Cl)N=C(N)OCC1(F)F [Example 51]", "experimental-readout": "pIC50", "recorded-value": 6.49}
{"compound": "C[C@]1(c2cc(NC(=O)c3ccc(OCC(F)(F)C(F)(F)F)cn3)ccc2F)N=C(N)OCC1(F)F [Example 44]", "experimental-readout": "pIC50", "recorded-value": 4.84}
{"compound": "CC1(C)OC(N)=N[C@](C)(c2cc(NC(=O)c3ccc(Cl)cn3)ccc2F)C1(F)F [Example 19]", "experimental-readout": "pIC50", "recorded-value": 6.92}
{"compound": "C[C@]1(c2cc(NC(=O)c3cnc(C(F)(F)F)cn3)ccc2F)N=C(N)OCC1(F)F [Example 17]", "experimental-readout": "pIC50", "recorded-value": 5.91}
{"compound": "C[C@]1(c2cc(NC(=O)c3ccc(OC(F)F)cn3)ccc2F)N=C(N)OCC1(F)F [Example 41]", "experimental-readout": "pIC50", "recorded-value": 6.07}

A. Cn1ccc(C(=O)Nc2ccc(F)c([C@@]3(C)N=C(N)OCC3(F)F)c2)n1 [Example 63]
B. CC1(C)OC(N)=N[C@](C)(c2cc(NC(=O)c3ccc(C(F)(F)F)cn3)ccc2F)C1(F)F [Example 25]
C. CC1(C)OC(N)=N[C@](C)(c2cc(NC(=O)c3ccc(C#N)cn3)ccc2F)C1(F)F [Example 21]
Put the compounds in ascending order of pIC50. Give me the labels in the order the question wants.
B, C, A
(B: 5.65, C: 6.68, A: 6.95)

a. C[C@]1(c2cc(NC(=O)c3ncc(F)cc3F)ccc2F)N=C(N)OCC1(F)F [Example 4]
b. CC1(C)OC(N)=N[C@](C)(c2cc(NC(=O)c3ncc(Cl)cc3Cl)ccc2F)C1(F)F [Example 23]
Kindly compare a with b and tell me which has the lower pIC50 figure. Output the label that corresponds to your choice.
b
(b: 7.18, a: 7.59)

1. Cc1nc(C(=O)Nc2ccc(F)c([C@@]3(C)N=C(N)OCC3(F)F)c2)c(C(F)(F)F)o1 [Example 60]
2. Cc1nc(C(=O)Nc2ccc(F)c([C@@]3(C)N=C(N)OCC3(F)F)c2)co1 [Example 58]
3. CC1(C)OC(N)=N[C@](C)(c2cc(NC(=O)c3ncc(C(F)(F)F)cn3)ccc2F)C1(F)F [Example 33]
Output the entries ranked by pIC50 from maximum down to minimum. Give me the labels in the order the question wants.
2, 1, 3
(2: 7.60, 1: 6.44, 3: 5.58)

P. C[C@]1(c2cc(NC(=O)c3ncccc3C(F)(F)F)ccc2F)N=C(N)OCC1(F)F [Example 6]
Q. C[C@@](O)(C(=O)Nc1ccc(F)c([C@@]2(C)N=C(N)OCC2(F)F)c1)C(F)(F)F [Example 76, 2,2,2-trifluoroacetate]
Kindly compare P with Q and tell me which has the lower pIC50 figure. Output the label that corresponds to your choice.
Q
(Q: 5.85, P: 6.48)

* * *

# system-name: BACE2 (Rattus norvegicus)
# Construct: endogenous cellular BACE2 in the Ins1e rat cell line; endogenous in cells
# protocol-summary: Assay for BACE inhibition by measuring cellular TMEM27 cleavage
# measurement-setup: INS-TMEM27 cells (INS1e-derived); shed TMEM27 by ELISA; read-out: BACE2 cell act. IC50
experimental-readout: IC50 (nM)

{"compound": "C[C@]1(c2cc(NC(=O)c3ccc(C#N)cn3)cc(F)c2F)N=C(N)OCC1(F)F [Example 49]", "IC50 / nM": 151}
{"compound": "C[C@]1(c2cc(NC(=O)c3ncc(C(F)(F)F)cc3Cl)ccc2F)N=C(N)OCC1(F)F [Example 5]", "IC50 / nM": 15}

1. CC1(C)OC(N)=N[C@](C)(c2cc(NC(=O)c3ncc(Cl)cn3)ccc2F)C1(F)F [Example 32]
2. C[C@]1(c2cc(NC(=O)c3ncc(C(F)(F)F)cn3)ccc2F)N=C(N)OCC1(F)F [Example 16]
Higher IC50: 1 or 2 ? Output the label that corresponds to your choice.
2
(2: 1540 nM, 1: 20 nM)

* * *

# system-name: BACE2 (Rattus norvegicus, UniProt Q6IE75)
# Construct: endogenous cellular BACE2 in the Ins1e rat cell line; endogenous in cells
# Sequence (Q6IE75 63-514): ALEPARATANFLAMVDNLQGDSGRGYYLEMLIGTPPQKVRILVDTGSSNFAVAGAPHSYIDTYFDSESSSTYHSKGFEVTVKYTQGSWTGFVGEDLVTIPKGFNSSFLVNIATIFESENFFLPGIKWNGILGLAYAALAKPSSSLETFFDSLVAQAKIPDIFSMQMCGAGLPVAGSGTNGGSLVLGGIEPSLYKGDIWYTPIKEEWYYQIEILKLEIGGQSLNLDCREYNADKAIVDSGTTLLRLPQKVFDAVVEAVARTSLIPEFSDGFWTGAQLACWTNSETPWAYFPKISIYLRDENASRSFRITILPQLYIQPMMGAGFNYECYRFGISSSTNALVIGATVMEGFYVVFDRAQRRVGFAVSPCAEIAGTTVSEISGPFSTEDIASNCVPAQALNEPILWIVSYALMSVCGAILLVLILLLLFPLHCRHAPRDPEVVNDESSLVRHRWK
# protocol-summary: Assay for BACE inhibition by measuring cellular TMEM27 cleavage
# measurement-setup: INS-TMEM27 cells (INS1e-derived); shed TMEM27 by ELISA; read-out: BACE2 cell act. IC50
experimental-readout: IC50 (µM)

{"compound": "C[C@]1(c2cc(NC(=O)c3ncccc3F)ccc2F)N=C(N)OCC1(F)F", "IC50 (µM)": 0.052}

a. Cc1nc(C(=O)Nc2ccc(F)c([C@@]3(C)N=C(N)OCC3(F)F)c2)c(C)o1
b. C[C@]1(c2cc(NC(=O)c3ccn(C(F)F)n3)ccc2F)N=C(N)OCC1(F)F
Higher IC50: a or b ? Output the label that corresponds to your choice.
a
(a: 0.097 µM, b: 0.013 µM)
